Test system: pembrolizumab
assay-info: Viscosity of pembrolizumab test formulations (mVROC viscometer)
Assay type: physicochemical
condition-set: 10 mM histidine buffer, 200 mg/mL pembrolizumab, 0.2 M excipient, pH 5.5
assay-readout: Viscosity Average (mPa-s)
Dear colleague, please return just the value in mPa-s, with no unit written.

# compound, Viscosity Average [mPa-s]
rows = [
    ("COCCOCCN[C@@H](Cc1c[nH]cn1)C(=O)O [Example 12]", 22.26),
    ("COCCOCCOCC(=O)N[C@@H](Cc1c[nH]cn1)C(=O)O [Example 1]", 23.20),
    ("COCCOCC(=O)N[C@@H](Cc1c[nH]cn1)C(=O)O [Example 13, (2-(2-methoxyethoxy)acetyl)-L-histidine]", 20.07),
]

[ask] I am curious: what Viscosity Average value has been reported for COCCOCC(=O)N[C@@H](CCCCN)C(=O)O [Example 10] ?
[reply] 26.37

[ask] Can you check N=C(N)NCCC[C@@H](C(=O)O)N(CCOCCO)CCOCCO [Example 20] next?
[reply] 25.35

[ask] Can you check COCCOCC(=O)N[C@@H](Cc1ccccc1)C(=O)O [Example 22] next?
[reply] 17.70
